System: Cathepsin B
Assay: Tested for inhibition of cathepsin B by the compound; NI = No Inhibition
Activity calls are given as the source filed them. The calls are words filed in the database; no cut-off is given here.

[
  {
    "compound": "CCOC(=O)[C@H]1O[C@@H]1C(=O)N(CC(=O)O)NC(=O)[C@@H](NC(=O)[C@H](CCC(=O)O)NC(=O)[C@@H](NC(=O)OCc1ccccc1)[C@@H](C)CC)[C@@H](C)O",
    "k obs / 1": "inactive"
  },
  {
    "compound": "CC(C)[C@H](NC(=O)CCc1ccccc1)C(=O)N[C@@H](C)C(=O)NN(CC(=O)O)C(=O)[C@H]1O[C@@H]1CCc1ccccc1",
    "k obs / 1": "inactive"
  },
  {
    "compound": "CCOC(=O)[C@H]1O[C@@H]1C(=O)N(CC(=O)O)NC(=O)[C@@H](NC(=O)C(CCC(=O)O)NC(=O)[C@H](CC(C)C)NC(=O)OCc1ccccc1)[C@@H](C)O (stereo partly drawn)",
    "k obs / 1": "inactive"
  }
]
